Tgt: CYP1A2 (Homo sapiens)
Sequence (P05177 whole entry): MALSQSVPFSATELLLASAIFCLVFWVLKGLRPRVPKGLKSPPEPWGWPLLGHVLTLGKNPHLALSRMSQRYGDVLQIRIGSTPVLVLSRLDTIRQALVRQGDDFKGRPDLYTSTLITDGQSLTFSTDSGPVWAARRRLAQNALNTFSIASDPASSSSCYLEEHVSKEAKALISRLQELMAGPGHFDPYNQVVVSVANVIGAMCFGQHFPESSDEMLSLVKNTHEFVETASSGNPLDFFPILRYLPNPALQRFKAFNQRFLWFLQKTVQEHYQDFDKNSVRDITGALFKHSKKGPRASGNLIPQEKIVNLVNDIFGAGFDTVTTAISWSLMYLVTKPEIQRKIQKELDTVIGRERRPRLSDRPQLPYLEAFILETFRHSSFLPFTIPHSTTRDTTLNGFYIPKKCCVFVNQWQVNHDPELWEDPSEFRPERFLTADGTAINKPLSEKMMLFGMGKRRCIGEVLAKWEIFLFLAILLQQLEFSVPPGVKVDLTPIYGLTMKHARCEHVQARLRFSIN
Experiment: clinical
Conditions: human, in vivo, po, AUC(0-t), Mean (CV %), 5 + 1 cocktail alone
Endpoint: AUC(0-t)

Compound: Cn1c(=O)[nH]c2ncn(C)c2c1=O [paraxanthine]
Tgt: CYP1A2 (Homo sapiens)
Observed value: 31000 ng·h/mL

====

Tgt: CYP1A2 (Homo sapiens)
Experiment: Example 2 phase 1 drug-drug interaction study, rivoceranib 700 mg QD + 5+1 cocktail: caffeine probe
Conditions: human, in vivo, po, probe caffeine, AUC(0-∞), Mean (CV %), 5 + 1 cocktail alone, healthy volunteers, single oral 5+1 cocktail dose day 1, fasted
Endpoint: AUC(0-inf) (ng·h/mL)

Cpd smiles: Cn1c(=O)c2c(ncn2C)n(C)c1=O
Tgt: CYP1A2 (Homo sapiens)
Endpoint: AUC(0-inf)
Observed value: 53400
